System: Mycobacterium tuberculosis
Method Notes: Antitubercular activity against Mycobacterium tuberculosis H37Rv ATCC 27294 grown under Middlebrook 7H9 broth after 2 weeks by microscopic analysis
Assay type: functional
Measurement Conditions: H37Rv ATCC 27294, 336 h
Exam item: assign Fulfilled to entries whose MIC is below 20 µg/mL and Not fulfilled to entries at or above 20 µg/mL. Note that a value of exactly 20 µg/mL receives Not fulfilled.

Is MIC strictly under 20 µg/mL for the entry O=C(Nc1ccc([N+](=O)[O-])cc1)Nc1ccc(S(=O)(=O)Nc2ccc([N+](=O)[O-])c(C(F)(F)F)c2)cc1 ? Not fulfilled

Is MIC strictly under 20 µg/mL for the entry N#Cc1ccc(NS(=O)(=O)c2ccc(NC(=O)Nc3ccc([N+](=O)[O-])cc3)cc2)cc1 ? Not fulfilled

Is MIC strictly under 20 µg/mL for the entry O=C(Nc1ccc([N+](=O)[O-])cc1)Nc1ccc(S(=O)(=O)Nc2ccc(O)cc2)cc1 ? Not fulfilled

Is MIC strictly under 20 µg/mL for the entry COc1ccc(NS(=O)(=O)c2ccc(NC(=O)Nc3ccc([N+](=O)[O-])cc3)cc2)cc1 ? Not fulfilled

Is MIC strictly under 20 µg/mL for the entry O=C(Nc1ccc([N+](=O)[O-])cc1)Nc1ccc(S(=O)(=O)Nc2ccc(Cl)c(Cl)c2)cc1 ? Not fulfilled

Is MIC strictly under 20 µg/mL for the entry O=C(Nc1ccc([N+](=O)[O-])cc1)Nc1ccc(S(=O)(=O)Nc2ccc(Cl)cc2)cc1 ? Not fulfilled

Is MIC strictly under 20 µg/mL for the entry NNC(=O)c1ccncc1 ? Fulfilled

Is MIC strictly under 20 µg/mL for the entry O=C(Nc1ccc([N+](=O)[O-])cc1)Nc1ccc(S(=O)(=O)Nc2ccc([N+](=O)[O-])cc2)cc1 ? Not fulfilled

Is MIC strictly under 20 µg/mL for the entry O=C(Nc1ccc([N+](=O)[O-])cc1)Nc1ccc(S(=O)(=O)Nc2ccccc2)cc1 ? Not fulfilled

###

Test system: Mycobacterium tuberculosis
Method Notes: Antitubercular activity against Mycobacterium tuberculosis H37Rv ATCC 27294 grown under Middlebrook 7H9 broth after 2 weeks by microscopic analysis
Format: functional
Measurement Conditions: H37Rv ATCC 27294, 336 h
Property Measured: MIC (µg/mL)
Answers are plain numbers, in µg/mL.

[[record]]
smiles_notation = "O=C(Nc1ccc([N+](=O)[O-])cc1)Nc1ccc(S(=O)(=O)Nc2ccc(I)cc2)cc1"
property_measured = "MIC"
result_unit = "µg/mL"
observed_measurement = 37


Record MIC for all entries; do not skip any.
1. O=C(Nc1ccc([N+](=O)[O-])cc1)Nc1ccc(S(=O)(=O)Nc2ccc(F)cc2)cc1
2. O=C(Nc1ccc([N+](=O)[O-])cc1)Nc1ccc(S(=O)(=O)Nc2cccc(C(F)(F)F)c2)cc1

1. 19
2. 37

Please report the measured MIC for O=C(Nc1ccc([N+](=O)[O-])cc1)Nc1ccc(S(=O)(=O)Nc2cccc([N+](=O)[O-])c2)cc1 tested on Mycobacterium tuberculosis. 25
